Consider the following compounds; for each one, report its GI50.
# Tested on: KM12
# test-method-notes: NCI tumour cell line growth inhibition, 48 h
The source made the active and inactive calls. Rule as the data show it: active = GI50 up to about 1.1 µM and inactive = higher.

// field: GI50; key: CCOC(=O)NNC(=O)NC12CC3CC(CC(C3)C1)C2 ; value = > 100 µM (inactive)

// field: GI50; key: Nc1ncnc2c1ncn2-c1ccc([N+](=O)[O-])cn1 ; value = > 100 µM (inactive)

// field: GI50; key: BC(=O)NC(CC(C)C)C(=O)NCC(=O)NC1c2ccsc2C(=O)C1O.CN(C)C (centres undefined) ; value = > 100 µM (inactive)

// field: GI50; key: O=S(=O)(N1CCCCN(S(=O)(=O)C(F)(F)F)CCCN(S(=O)(=O)C(F)(F)F)CCCN(S(=O)(=O)C(F)(F)F)CCCCN(S(=O)(=O)C(F)(F)F)CCCN(S(=O)(=O)C(F)(F)F)CCC1)C(F)(F)F ; value = > 100 µM (inactive)

// field: GI50; key: COC(=O)c1c(C)cccc1C1CN=NC12Cc1c(C)cccc1C2=O (centres undefined) ; value = 46.6 µM (inactive)

// field: GI50; key: CC(=O)Oc1ccc2cc(Oc3ccc(Cl)c(Cl)c3)c(=O)oc2c1 ; value = 18.5 µM (inactive)

// field: GI50; key: O=C(/C=N/O)c1c(-c2ccccc2)[nH]c(-c2ccccc2)c1-c1ccccc1 ; value = 13.6 µM (inactive)

// field: GI50; key: N#Cc1c(=O)c2cccnc2n2c1[nH]c1ccccc12 ; value = 80.7 µM (inactive)

// field: GI50; key: CC1(C)CC(=O)C2=C(C1)OC1=C(CC(C)(C)CC1=O)C2c1ccccc1[N+](=O)[O-] (centres undefined) ; value = > 100 µM (inactive)

---

# Test system: SF-539
# test-method-notes: NCI tumour cell line growth inhibition, 48 h
Activity calls are given as the source filed them. Rule as the data show it: active = GI50 up to about 1.1 µM and inactive = higher.
Give your call using only these classes: active, inactive

Enquiry: Dear colleague, could you share the recorded outcome for O=C(O)CCC1(C(=O)O)CCC(=O)c2ccccc21 (stereo not drawn) when you have a moment?
Return: inactive

Enquiry: Dear colleague, could you share the recorded outcome for COC(=O)C(Cc1c(C2Nc3ccccc3C2CC(NC(=O)CNC(C)=O)C(=O)OC)[nH]c2ccccc12)NC(=O)CNC(C)=O (stereo not drawn) when you have a moment?
Return: inactive

Enquiry: Dear colleague, could you share the recorded outcome for Cc1cc(S(=O)(=O)Nc2nnc3c(C(F)(F)F)cc(Cl)cn23)c(S)cc1Cl when you have a moment?
Return: inactive

Enquiry: Dear colleague, could you share the recorded outcome for O=c1oc2ccc3ccccc3c2cc1-c1cn2ccsc2n1 when you have a moment?
Return: inactive

Enquiry: Dear colleague, could you share the recorded outcome for COC1=CC(=O)c2c(cc(COP(N)(=O)N(CCCl)CCCl)n2C)C1=O (stereo not drawn) when you have a moment?
Return: active

Enquiry: Dear colleague, could you share the recorded outcome for COc1cc2cc(C(=O)N3CC(CCl)c4c3cc(NC(=O)C(C)Nc3c([N+](=O)[O-])cc(C(=O)NCCN(C)C)cc3[N+](=O)[O-])c3ccccc43)[nH]c2c(OC)c1OC (stereo not drawn) when you have a moment?
Return: active

Enquiry: Dear colleague, could you share the recorded outcome for CN(C)CCCn1c(-c2cc(C(C)(C)C)c(O)c(C(C)(C)C)c2)cs/c1=N\c1ccccc1 when you have a moment?
Return: inactive

Enquiry: Dear colleague, could you share the recorded outcome for O=S(=O)(O)c1c(Cl)c(Cl)c(O)c2ncccc12 when you have a moment?
Return: inactive

Enquiry: Dear colleague, could you share the recorded outcome for Cc1cc(C)nc(NCCC(O)(P(=O)(O)O)P(=O)(O)O)n1 when you have a moment?
Return: inactive

Enquiry: Dear colleague, could you share the recorded outcome for c1ccc(NN/N=N/c2ccc(-c3nc4ccccc4[nH]3)cc2)cc1 when you have a moment?
Return: inactive

Enquiry: Dear colleague, could you share the recorded outcome for CC(C)CCNC(=O)c1ccc(CNC(=O)/C=C/c2ccc3c(c2)-c2ccccc2C3)cc1 when you have a moment?
Return: inactive

Enquiry: Dear colleague, could you share the recorded outcome for O=C(NC1CCCCC1)NS(=O)(=O)c1ccc2c(c1)CCC2 [GLYHEXAMIDE] when you have a moment?
Return: inactive

Enquiry: Dear colleague, could you share the recorded outcome for CCCCCCCCC[C@@H]1C[C@@H]2CCC3C(C(=O)OCCCCNC(=O)OCc4ccccc4)=C(C)N=C(N1)N32 (stereo partly drawn) when you have a moment?
Return: inactive

Enquiry: Dear colleague, could you share the recorded outcome for N#CC(C(=N/NC(N)=S)/C(=N\NC(N)=S)C(C#N)c1ccccc1)c1ccccc1 (stereo not drawn) when you have a moment?
Return: inactive

Enquiry: Dear colleague, could you share the recorded outcome for COc1c2c(c(CC=C(C)C)c3oc(=O)c(-c4ccc(O)cc4)c(O)c13)OC(C)(C)C=C2 when you have a moment?
Return: inactive

Enquiry: Dear colleague, could you share the recorded outcome for CS/C(=N/S(=O)(=O)c1ccc(Cl)cc1)NCCCN/C(=N\S(=O)(=O)c1ccc(Cl)cc1)SC when you have a moment?
Return: inactive

Enquiry: Dear colleague, could you share the recorded outcome for CC1(C)CC[C@]2(C(=O)O)CCC3(C)C(=CCC4[C@@]5(C)CC[C@H](OC6OCC(O)C(O)C6OC6OC(CO)C(O)C(O)C6O)C(C)(C)C5CC[C@]43C)C2C1 (stereo partly drawn) when you have a moment?
Return: inactive

Enquiry: Dear colleague, could you share the recorded outcome for C=C(Br)COc1ccc2c(C)cc(=O)oc2c1 when you have a moment?
Return: inactive

---

Consider the following compounds; for each one, report its GI50.
# Tested on: SNB-75
# test-method-notes: NCI tumour cell line growth inhibition, 48 h
Active and inactive are the calls of the source. Rule as the data show it: active = GI50 up to about 1.1 µM and inactive = higher.

// assay SNB-75, entry CC1=C2C3=C(C)C(=O)C(C)(C)CC[C@@]3(C)[C@]2(C)CCC(C)(C)C1=O , GI50 value = > 100 µM (inactive)

// assay SNB-75, entry NC(CSS(=O)(=O)c1ccccc1)C(=O)O (centres undefined) , GI50 value = > 10 µM (inactive)

// assay SNB-75, entry CCCCCNC1=CC(=O)c2ccccc2C1=O , GI50 value = 22.2 µM (inactive)

// assay SNB-75, entry CC(=O)Nn1c(Cc2ccc(Cl)cc2)nn(C)c1=O , GI50 value = > 100 µM (inactive)

// assay SNB-75, entry C=C[C@@H](C)[C@]1(C(=O)OC)CCCC12OCCO2 , GI50 value = > 100 µM (inactive)

// assay SNB-75, entry COc1nc(SC)nc2c1cnn2C1OC(C(O)CO)C(OC)C1O (centres undefined) , GI50 value = 48.4 µM (inactive)

// assay SNB-75, entry COc1ccccc1NC(=O)C(CC(C(=O)Nc1ccccc1OC)/C(C)=N/NC(=O)c1ccccc1O)/C(C)=N/NC(=O)c1ccccc1O (centres undefined) , GI50 value = 96.6 µM (inactive)

// assay SNB-75, entry CCC(/C=C/C1OC(=O)C=CC1C)=C\C(C)C/C=C/C(C)=C/C(C)C(=O)C(C)C(O)C(C)C/C(C)=C/C(=O)O (centres undefined) , GI50 value = 1.91 µM (inactive)

// assay SNB-75, entry C[C@]12CC[C@H]3[C@@H](CCC4=CC(=O)CC[C@@]43C)[C@@H]1CC[C@@H]2C(=O)COS(=O)(=O)c1ccc(Br)cc1 , GI50 value = 17.5 µM (inactive)

---

# Test system: RPMI-8226
# test-method-notes: NCI tumour cell line growth inhibition, 48 h
Activity calls are given as the source filed them. Rule as the data show it: active = GI50 up to about 1.1 µM and inactive = higher.
Give your call using only these classes: active, inactive

Enquiry: Dear colleague, could you share the recorded outcome for NCCSCC(N)C(=O)O (stereo not given) when you have a moment?
Return: inactive

Enquiry: Dear colleague, could you share the recorded outcome for O=[N+]([O-])c1cccc(C2=NN(c3ccccc3)C3c4ccccc4OCC23)c1 (stereo not given) when you have a moment?
Return: inactive

Enquiry: Dear colleague, could you share the recorded outcome for COc1ccc(/N=C2\C(=N/c3ccc(OC)cc3)N(c3ccccc3[N+](=O)[O-])C(=S)N2c2ccc(OC)cc2)cc1 when you have a moment?
Return: inactive

Enquiry: Dear colleague, could you share the recorded outcome for C/C(=N\NC(=S)N1CCCCCC1)c1nccnc1C when you have a moment?
Return: active

Enquiry: Dear colleague, could you share the recorded outcome for O=C(N/N=C1/C(=O)N(c2ccc(Cl)cc2Cl)C(=O)C(=O)C1c1nc2ccccc2o1)c1ccccc1O (stereo not given) when you have a moment?
Return: inactive
